# Test system: pruritus mice model to which morphine had been intracisternally administered
# testMethodNotes: Anti-pruritic effect in pruritus mice model to which morphine had been intracisternally administered
# Assay type: in vivo
# measurementConditions: Mus musculus; oral administration, male ICR mice, inhibition of morphine-induced scratching behavior; read-out: ED50
Where a name gives a salt, the structure may show the parent alone.
measuredEndpoint: ED50 (mg/kg)

1. CC[C@]1(c2cc(F)cc(NS(=O)(=O)C3CC3)c2)[C@@H]2CN(CC3(OC)Cc4ccccc4C3)C[C@@H]21 [Example 12-(b), hydrochloride] | 3.2
2. CC[C@]1(c2cccc(NS(=O)(=O)C3CC3)c2)[C@@H]2CN(CCCC3(OC)CCC(F)(F)CC3)C[C@@H]21 [Example 6-(b), hydrochloride] | 0.42
3. CC[C@]1(c2cc(NS(=O)(=O)C3CC3)ccc2F)[C@@H]2CN(CCCC3CCC(F)(F)CC3)C[C@@H]21 [Example 5-(b), hydrochloride] | 1.7
4. CC[C@]1(c2cccc(NS(=O)(=O)C3CC3)c2)[C@@H]2CN(CCCN3CCCC(F)(F)C3)C[C@@H]21 [Example 16-(b), hydrochloride] | 5.7
5. CC[C@]1(c2cc(F)cc(NS(=O)(=O)C3CC3)c2)[C@@H]2CN(CC3(O)Cc4ccccc4C3)C[C@@H]21 [Example 10-(b), hydrochloride] | 1.8
6. CC[C@]1(c2cccc(NS(=O)(=O)C3CC3)c2)[C@@H]2CN(CC3(OC)Cc4ccccc4C3)C[C@@H]21 [Example 3-(b), hydrochloride] | 4.2
7. C[C@]1(c2cccc(NS(=O)(=O)C3CC3)c2)[C@@H]2CN(CC3(O)Cc4ccccc4C3)C[C@@H]21 [Example 17-(b), hydrochloride] | 1.5
8. CCOC1(CN2C[C@@H]3[C@H](C2)[C@@]3(CC)c2cccc(NS(=O)(=O)C3CC3)c2)Cc2ccccc2C1 [Example 13-(b), hydrochloride] | 2.4
9. CC[C@]1(c2cccc(NS(=O)(=O)C3CC3)c2)[C@@H]2CN(CC3(O)Cc4ccccc4C3)C[C@@H]21 | 3.5
10. CC[C@]1(c2cccc(NS(=O)(=O)C3CC3)c2)[C@@H]2CN(CCCC3CCC(F)(F)CC3)C[C@@H]21 [Example 4-(b), hydrochloride] | 0.5
11. CC[C@]1(c2cc(NS(=O)(=O)C3CC3)ccc2F)[C@@H]2CN(CC3(O)Cc4ccccc4C3)C[C@@H]21 [Example 2-(b), hydrochloride] | 0.83
12. CC[C@]1(c2cc(NS(=O)(=O)C3CC3)ccc2F)[C@@H]2CN(CCCN3CCC(F)(F)CC3)C[C@@H]21 [Example 15-(b), hydrochloride] | 3.1
13. CC[C@]1(c2cccc(NS(=O)(=O)C3CC3)c2)[C@@H]2CN(CCCN3CCC(F)(F)CC3)C[C@@H]21 [Example 7-(b), hydrochloride] | 2.4
14. CC[C@]1(c2cccc(NS(=O)(=O)C3CC3)c2)[C@@H]2CN(CCCN3CCC(F)(F)C3)C[C@@H]21 [Example 8-(b), hydrochloride] | 2

// provenance: patent US9663463B2
